System: NCI-H838
assay-details: relative viability (nuclei count vs DMSO), 5 days (fraction); higher = more cells survive
assay-conditions: first compound 2 µM
The label is 1 for relative viability below 0.4 and 0 for relative viability equal to or exceeding 0.4.

{"compound": "CN1CCN(CCOc2cc(OC3CCOCC3)c3c(Nc4c(Cl)ccc5c4OCO5)ncnc3c2)CC1 [Saracatinib] + CC(=O)Nc1cccc(-n2c(=O)n(C3CC3)c(=O)c3c(Nc4ccc(I)cc4F)n(C)c(=O)c(C)c32)c1 [Trametinib] (partner 0.02 µM)", "label-value": 0}
{"compound": "Cc1csc(=NC2CCCCC2)n1/N=C/c1ccc(O)c(O)c1O [MIM1] + Cc1nc(NC(=O)N2CCC[C@H]2C(N)=O)sc1-c1ccnc(C(C)(C)C(F)(F)F)c1 [Alpelisib] (partner 2 µM)", "label-value": 0}
{"compound": "Cc1csc(=NC2CCCCC2)n1/N=C/c1ccc(O)c(O)c1O [MIM1] + N=C(N)NC(=N)NCCc1ccccc1 [Phenformin] (partner 250 µM)", "label-value": 0}
{"compound": "CN1CCN(CCOc2cc(OC3CCOCC3)c3c(Nc4c(Cl)ccc5c4OCO5)ncnc3c2)CC1 [Saracatinib] + COc1cccc2cc(-c3nc([C@H]4CC[C@H](C(=O)O)CC4)n4ncnc(N)c34)[nH]c12 [OSI-027] (partner 0.5 µM)", "label-value": 1}
{"compound": "CN1CCN(CCOc2cc(OC3CCOCC3)c3c(Nc4c(Cl)ccc5c4OCO5)ncnc3c2)CC1 [Saracatinib] + CCNC(=O)c1noc(-c2cc(C(C)C)c(O)cc2O)c1-c1ccc(CN2CCOCC2)cc1 [Luminespib] (partner 0.01 µM)", "label-value": 1}
{"compound": "Cc1csc(=NC2CCCCC2)n1/N=C/c1ccc(O)c(O)c1O [MIM1] + CC(=O)c1c(C)c2cnc(Nc3ccc(N4CCNCC4)cn3)nc2n(C2CCCC2)c1=O [Palbociclib] (partner 0.5 µM)", "label-value": 1}
{"compound": "CN1CCN(CCOc2cc(OC3CCOCC3)c3c(Nc4c(Cl)ccc5c4OCO5)ncnc3c2)CC1 [Saracatinib] + CC(C)C[C@H](NC(=O)[C@H](Cc1ccccc1)NC(=O)c1cnccn1)B(O)O [Bortezomib] (partner 0.002 µM)", "label-value": 0}
{"compound": "CN1CCN(CCOc2cc(OC3CCOCC3)c3c(Nc4c(Cl)ccc5c4OCO5)ncnc3c2)CC1 [Saracatinib] + C[C@]1(O)C[C@@H](c2nc(-c3ccc4ccc(-c5ccccc5)nc4c3)c3c(N)nccn32)C1 [Linsitinib] (partner 1 µM)", "label-value": 0}

====

Test system: NCI-H1793
assay-details: relative viability (nuclei count vs DMSO), 5 days (fraction); higher = more cells survive
assay-conditions: first compound 0.2 µM
measure: relative viability

{"compound": "CN1CCN(CCOc2cc(OC3CCOCC3)c3c(Nc4c(Cl)ccc5c4OCO5)ncnc3c2)CC1 [Saracatinib] + Nc1nc2[nH]cc(CCc3ccc(C(=O)N[C@@H](CCC(=O)O)C(=O)O)cc3)c2c(=O)[nH]1 [Pemetrexed] (partner 0.2 µM)", "measure": "relative viability", "endpoint-value": 0.766}
{"compound": "Cc1csc(=NC2CCCCC2)n1/N=C/c1ccc(O)c(O)c1O [MIM1] + COc1cccc2cc(-c3nc([C@H]4CC[C@H](C(=O)O)CC4)n4ncnc(N)c34)[nH]c12 [OSI-027] (partner 0.5 µM)", "measure": "relative viability", "endpoint-value": 0.273}
{"compound": "CCNC(=O)c1noc(-c2cc(C(C)C)c(O)cc2O)c1-c1ccc(CN2CCOCC2)cc1 [Luminespib] + Cc1nc(Nc2ncc(C(=O)Nc3c(C)cccc3Cl)s2)cc(N2CCN(CCO)CC2)n1 [Dasatinib] (partner 0.075 µM)", "measure": "relative viability", "endpoint-value": 0.14}
